Please respond with reported Displacement for every item in the list.
- assay target: Adenosine receptor A2b (Homo sapiens) (UniProt P29275)
- Sequence (P29275 whole entry): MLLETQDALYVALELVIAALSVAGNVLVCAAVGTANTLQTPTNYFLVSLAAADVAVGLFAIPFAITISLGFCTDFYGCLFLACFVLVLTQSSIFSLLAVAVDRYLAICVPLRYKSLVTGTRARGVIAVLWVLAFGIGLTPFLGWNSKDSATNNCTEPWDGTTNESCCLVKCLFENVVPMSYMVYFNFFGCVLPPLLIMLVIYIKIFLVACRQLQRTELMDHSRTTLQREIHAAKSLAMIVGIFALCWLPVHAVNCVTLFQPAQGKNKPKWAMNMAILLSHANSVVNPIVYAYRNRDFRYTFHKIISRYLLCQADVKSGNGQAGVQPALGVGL
- assay name: In vitro binding affinity towards human adenosine A2B receptor by [3H]DPCPX displacement at 10 uM.
The figure you give is taken to be in %; do not add the unit.

Reported Displacement for "O=C(N/N=N/c1nc(NCC(c2ccccc2)c2ccccc2)c2ncn([C@@H]3O[C@H](CO)[C@@H](O)[C@H]3O)c2n1)Nc1ccccc1" was 10

Reported Displacement for "Nc1nc(/N=N/NC(=O)Nc2ccccc2Cl)nc2c1ncn2[C@@H]1O[C@H](CO)[C@@H](O)[C@H]1O" was 30

Reported Displacement for Nc1nc(/N=N/NC(=O)Nc2cccc(Cl)c2)nc2c1ncn2C1O[C@H](CO)[C@@H](O)[C@H]1O (stereo partly drawn) was 64

Reported Displacement for "COc1ccc(NC(=O)/N=N/Nc2nc(N)c3ncn([C@@H]4O[C@H](CO)[C@@H](O)[C@H]4O)c3n2)cc1" was 15

Reported Displacement for "NC(=O)/N=N/Nc1nc(Nc2ccccc2)c2ncn([C@@H]3O[C@H](CO)[C@@H](O)[C@H]3O)c2n1" was 10

Reported Displacement for "Nc1nc(/N=N/NC(=O)NCc2ccccc2)nc2c1ncn2[C@@H]1O[C@H](CO)[C@@H](O)[C@H]1O" was 9

Reported Displacement for "CCNC(=O)/N=N/Nc1nc(N)c2ncn([C@@H]3O[C@H](CO)[C@@H](O)[C@H]3O)c2n1" was 15

Reported Displacement for "O=C(N/N=N/c1nc(Nc2ccccc2)c2ncn([C@@H]3O[C@H](CO)[C@@H](O)[C@H]3O)c2n1)Nc1ccccc1" was 9

This collection of values is drawn from ChEMBL document CHEMBL1136764.
